# IC50 per entry
measuredTarget: TF/FVIIa (Homo sapiens, UniProt P08709)
Sequence (P08709 213-466 limits assumed): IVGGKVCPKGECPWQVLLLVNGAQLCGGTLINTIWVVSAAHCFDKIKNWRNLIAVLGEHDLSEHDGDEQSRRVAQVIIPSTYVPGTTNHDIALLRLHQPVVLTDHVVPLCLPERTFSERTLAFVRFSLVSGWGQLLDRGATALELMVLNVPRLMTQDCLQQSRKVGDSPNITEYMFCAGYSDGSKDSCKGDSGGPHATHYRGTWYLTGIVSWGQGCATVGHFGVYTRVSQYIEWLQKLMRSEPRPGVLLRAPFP
Sequence (P08709 61-212 limits assumed): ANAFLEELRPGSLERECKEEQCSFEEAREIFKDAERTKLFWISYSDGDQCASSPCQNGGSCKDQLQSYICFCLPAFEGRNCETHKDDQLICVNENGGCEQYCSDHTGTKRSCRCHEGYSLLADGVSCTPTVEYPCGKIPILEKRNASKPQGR
Sequence (P13726 33-295 partner): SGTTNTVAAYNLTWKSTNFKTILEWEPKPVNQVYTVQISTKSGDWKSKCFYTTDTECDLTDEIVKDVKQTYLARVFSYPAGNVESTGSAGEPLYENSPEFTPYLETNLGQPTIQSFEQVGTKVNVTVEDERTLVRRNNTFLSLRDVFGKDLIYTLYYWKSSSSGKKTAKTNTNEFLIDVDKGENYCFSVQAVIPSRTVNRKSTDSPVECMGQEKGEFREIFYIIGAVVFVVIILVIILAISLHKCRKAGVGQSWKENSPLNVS
methodDescription: TF/factor VIIa inhibition (TF/FVIIa-IC50)
testSettings: Table 1, pharmacological data, 'Affinity to receptors'
assayReadout: IC50 (nM)

- Cc1cc(NC(=O)C(Nc2cccc(CN)c2)c2ccccc2Cl)ccc1N1CCCC1=NCCN(C)C (centres unmarked): 130
- CC(C)C[C@H](Oc1ccc2ccnc(N)c2c1)C(=O)Nc1ccc(N2CCCCC2=N)cc1: 2000
- CON=C1CCCCN1c1ccc(NC(=O)[C@H](CC(C)C)Oc2ccc3ccnc(N)c3c2)cc1 (single isomer, unassigned): 490
- NCc1cccc(NC(C(=O)Nc2ccc(N3CCCC3=NO)c(Cl)c2)c2ccccc2)c1 (racemic): 290
- N=C1CCCN1c1ccc(NC(=O)C(Nc2cccc(CN)c2)c2ccccc2)cc1Cl (racemic): 99
